// reported speed of sound for each item listed
# CONDITIONS USED: 328.15 K; 98 kPa; Liquid; Frequency=3 MHz; Single path-length method
PROPERTY NAME: speed of sound (m/s)

| CHEMICAL STRING | REPORTED RESULT |
| --- | --- |
| Cn1ccnc1 | 1485 |
| CO | 1005.3 |
| CCO | 1041.9 |
| CC(C)O | 1031.9 |
| CCCO | 1103.8 |

----------
# CONDITIONS USED: 298.15 K; 98 kPa; Liquid; Vibrating tube method
PROPERTY NAME: mass density (kg/m3)

| COMPOUND | REPORTED RESULT |
| --- | --- |
| CC(C)O [propan-2-ol] | 780.86 |
| CCO [ethanol] | 785.14 |
| CO [methanol] | 786.75 |
| CCCO [propan-1-ol] | 799.53 |
| Cn1ccnc1 [1-methylimidazole] | 1030.52 |

----------
# CONDITIONS USED: 328.15 K; 98 kPa; Liquid; Vibrating tube method
PROPERTY NAME: mass density (kg/m3)

| CHEMICAL STRING | PROPERTY NAME | MEASURE UNIT | REPORTED RESULT |
| --- | --- | --- | --- |
| CCCO | mass density | kg/m3 | 774.7 |
| CO | mass density | kg/m3 | 757.97 |
| CCO | mass density | kg/m3 | 758.65 |
| Cn1ccnc1 | mass density | kg/m3 | 1003.83 |
| CC(C)O | mass density | kg/m3 | 753.91 |

----------
# CONDITIONS USED: 308.15 K; 98 kPa; Liquid; Frequency=3 MHz; Single path-length method
We begin with a simple list: items and their reported speed of sound.
PROPERTY NAME: speed of sound (m/s)

| COMPOUND | REPORTED RESULT |
| --- | --- |
| CC(C)O [propan-2-ol] | 1103.3 |
| CCO [ethanol] | 1108.8 |
| CO [methanol] | 1069.8 |
| CCCO [propan-1-ol] | 1171.1 |
| Cn1ccnc1 [1-methylimidazole] | 1559 |

----------
# CONDITIONS USED: 298.15 K; 98 kPa; Liquid; Frequency=3 MHz; Single path-length method

| CHEMICAL STRING | speed of sound, m/s |
| --- | --- |
| CO | 1102.6 |
| CCO | 1142.7 |
| CC(C)O | 1138.4 |
| Cn1ccnc1 | 1596.5 |
| CCCO | 1205.2 |

----------
# CONDITIONS USED: 288.15 K; 98 kPa; Liquid; Vibrating tube method
Numbers after ± are expanded uncertainties.

| MOLECULE | mass density |
| --- | --- |
| CO [methanol] | 796.13 ± 0.81 kg/m3 |
| CCO [ethanol] | 793.68 ± 0.81 kg/m3 |
| Cn1ccnc1 [1-methylimidazole] | 1039.36 ± 0.83 kg/m3 |
| CCCO [propan-1-ol] | 807.5 ± 0.81 kg/m3 |
| CC(C)O [propan-2-ol] | 789.18 ± 0.81 kg/m3 |
